Reported protein stability index values for a set of variants
B1: ALDH8A1 (parent)
chain: WSSRSPQERSRVLNQVADLLEQSL

Variants of: B1
Test: protein stability index of a GFP-peptide fusion (GPS, HEK-293T) (PSI 1-6); higher = more stable;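 note: lentivirally expressed fusions sorted by FACS into six bins by GFP to DsRed ratio, PSI derived from sequencing read proportions per bin multiplied by bin number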
Conditions: c terminus: a fixed tail appended
experimental readout: protein stability index

monomer sequence	result number
WSSRSPQERSRVLNNVADLLEQSL [Q15N]	3.22
VSSRSPQERSRVLNQVADLLEQSL [W1V]	3.11
WSSRSPQERSRVLNQLADLLEQSL [V16L]	2.24
WSSRSPQERSSVLNQVADLLEQSL [R11S]	2.74
WSSRSPQERSRVLNQVADLLEKSL [Q22K]	2.27
WSSRSPQERSRVLNQVADLLEQSR [L24R]	3.49
WSSRSPQERSRVLNQVADLLENSL [Q22N]	2.61
WSSRSPQERSRVLMQVADLLEQSL [N14M]	1.79
TSSRSPQERSRVLNQVADLLEQSL [W1T]	3.39
WSSRSPQERSRVLNQVADLLEQNL [S23N]	3.45
WSFRSPQERSRVLNQVADLLEQSL [S3F]	1.88
WSSRSPVERSRVLNQVADLLEQSL [Q7V]	2.53
WSSRSPQERSRVLNQVADLLLQSL [E21L]	2.11
WSSRSPQERSRVLNQVADDLEQSL [L19D]	3.72
WSCRSPQERSRVLNQVADLLEQSL [S3C]	2.26
WSSRSPQERSRVLNQVAWLLEQSL [D18W]	1.37
WSSRSPQERSRVQNQVADLLEQSL [L13Q]	3.85
WSSRSPQEWSRVLNQVADLLEQSL [R9W]	2.22
WSSRSPQERSQVLNQVADLLEQSL [R11Q]	2.38
WSSRSPQERSRVLNQVADLLVQSL [E21V]	2.17
WSSRSPQEASRVLNQVADLLEQSL [R9A]	2.59
WSSRSPQERSRVLNQVADLLEQYL [S23Y]	1.72
WSSRSPQERRRVLNQVADLLEQSL [S10R]	2.95
WSSRSPQERSRVLNQVADLNEQSL [L20N]	4.14
WSSRSPQERSRVANQVADLLEQSL [L13A]	2.59
WSSWSPQERSRVLNQVADLLEQSL [R4W]	2.68
WSSRSPQERSRVLNQVADLLEDSL [Q22D]	3.63
WSSRGPQERSRVLNQVADLLEQSL [S5G]	2.05
WSSRSPQERSRVLNQVCDLLEQSL [A17C]	2.34
WDSRSPQERSRVLNQVADLLEQSL [S2D]	2.8
WSSRSPQERVRVLNQVADLLEQSL [S10V]	2.05
WSSISPQERSRVLNQVADLLEQSL [R4I]	2.64
WSSRSPQERSRVLNQVADLIEQSL [L20I]	2.28
WSSRSPQERSRVLNQVADLLEQAL [S23A]	2.31
WSSRSPQERSRVLNQVADLLEQFL [S23F]	2.24
WSSRSPQERSRVLNQVADLLEQTL [S23T]	1.94
WSSFSPQERSRVLNQVADLLEQSL [R4F]	1.82
WSSRSPGERSRVLNQVADLLEQSL [Q7G]	2.7
WSSRSPQERSRVLEQVADLLEQSL [N14E]	3.24
WSSRSPQERSRVGNQVADLLEQSL [L13G]	3.46
WSSRSPQERSRVLNQVADQLEQSL [L19Q]	4.19
WSSRSPQSRSRVLNQVADLLEQSL [E8S]	2.16
WSSRSPQERSRFLNQVADLLEQSL [V12F]	2.12
WSSRSPQERSRVLNQVIDLLEQSL [A17I]	2.42
WSSRSPQERSRVLNQVAPLLEQSL [D18P]	3.02
WSSRSPQERSRVLVQVADLLEQSL [N14V]	2.1
